I'd be grateful if you could share measured Population Membrane Permeable-Phenotype (%) for these entries.
System: Fibroblast
ASSAY OVERVIEW: Multiplex assay against human fibroblast
Format: toxicity, cell-based
CONDITION INFO: 24 h, 1 µM, compound concentration 1 uM, replicate 1
Non-standard residues stand in square brackets, D forms with d. Residues, ends and D or L forms follow the SMILES beside them.
Write the value in % as a bare number.

So what's the measured Population Membrane Permeable-Phenotype (%) for this one? "O=C(Nc1cc(-c2ccccc2)nn1-c1ccccc1F)c1ccc([N+](=O)[O-])cc1"
0

So what's the measured Population Membrane Permeable-Phenotype (%) for this one? "CN1CCN(c2ccc(Nc3c4ccccc4nc4ccccc34)cc2)CC1.Cl.Cl.O"
0

So what's the measured Population Membrane Permeable-Phenotype (%) for this one? "CCc1nn2c(C)cc(C)nc2c1Cc1ccc(-c2nnc(C3CCNCC3)o2)cc1"
0

So what's the measured Population Membrane Permeable-Phenotype (%) for this one? O=c1ccc2ccc(OCCCCN3CCN(c4cccc5sccc45)CC3)cc2[nH]1 [BREXPIPRAZOLE]
0

So what's the measured Population Membrane Permeable-Phenotype (%) for this one? COc1cc2nc(N3CCN(C(=O)c4ccco4)CC3)nc(N)c2cc1OC.Cl [PRAZOSIN HYDROCHLORIDE]
0

So what's the measured Population Membrane Permeable-Phenotype (%) for this one? Cc1cc(NC(=O)NCCN2CCC(O)(Cc3ccccc3)CC2)c2ccccc2n1 [PALOSURAN]
1

So what's the measured Population Membrane Permeable-Phenotype (%) for this one? "CN1CCC(C(=O)c2cccc(NC(=O)c3c(F)cc(F)cc3F)n2)CC1"
0

So what's the measured Population Membrane Permeable-Phenotype (%) for this one? O=C(NCCNCC(O)COc1ccc(O)cc1)N1CCOCC1.O=C(NCCNCC(O)COc1ccc(O)cc1)N1CCOCC1.O=C(O)/C=C/C(=O)O (stereo not given) [XAMOTEROL FUMARATE]
2

So what's the measured Population Membrane Permeable-Phenotype (%) for this one? CN(C)C/C=C/C(=O)Nc1ccc(C(=O)N2CCCC(Nc3ncc(Cl)c(-c4c[nH]c5ccccc45)n3)C2)cc1 (stereo not given)
2

So what's the measured Population Membrane Permeable-Phenotype (%) for this one? "Cc1cc(=O)n(C)c2cc(N3C(=O)CC[C@H](NS(=O)(=O)CC(C)C)[C@H]3c3ccc(Cl)cc3)ccc12"
1

So what's the measured Population Membrane Permeable-Phenotype (%) for this one? "COc1cc(C(=O)N2CC[C@@H](O)[C@@H](N)C2)cc2nc(-c3cc4ccccc4n3CC3CC3)n(C)c12.Cl"
0

So what's the measured Population Membrane Permeable-Phenotype (%) for this one? "COc1cc(OC2CCN(C(C)=O)CC2)ccc1C(=O)N1CCC(N2C(=O)OCc3ccccc32)CC1"
0

So what's the measured Population Membrane Permeable-Phenotype (%) for this one? "CN(C)C(=O)Cn1cc(-c2ccc(-c3nnc4ccccn34)cc2)cn1"
2

So what's the measured Population Membrane Permeable-Phenotype (%) for this one? CN1C[C@H](C(=O)N[C@]2(C)O[C@@]3(O)[C@@H]4CCCN4C(=O)[C@H](Cc4ccccc4)N3C2=O)C[C@@H]2c3cccc4[nH]cc(c34)C[C@H]21.CS(=O)(=O)O [DIHYDROERGOTAMINE MESYLATE]
0

So what's the measured Population Membrane Permeable-Phenotype (%) for this one? CC(C)C[C@@H]1NC(=O)[C@@H](C(C)C)NC(=O)[C@@H]2CCCN2C(=O)[C@@H](CC(=O)O)NC(=O)[C@@H](Cc2c[nH]c3ccccc23)NC1=O [BQ-123] (cyclo(L[dW][dD]P[dV]))
0

###

System: HEK-293T
ASSAY OVERVIEW: Multiplex assay against HEK293T
Type: toxicity, cell-based
CONDITION INFO: human, 48 h, 10 µM, compound concentration 10 uM, replicate 1
QUANTITY MEASURED: Population Fragmented Nuclei (%)
Answer by giving the amount and then stating its unit.

So what's the measured Population Fragmented Nuclei (%) for this one? "CC(C)(O)C(=O)N1CCN(c2ccc(C(F)(F)F)c(C3=C(c4c[nH]c5ccccc45)C(=O)NC3=O)c2)CC1"
8%

So what's the measured Population Fragmented Nuclei (%) for this one? O=c1nc2[nH]c3ccccc3nc-2c(=O)[nH]1 [ALLOXAZINE]
15%

So what's the measured Population Fragmented Nuclei (%) for this one? COCCCN1CCC(NC(=O)c2cc(Cl)c(N)c3c2OCC3)CC1 [PRUCALOPRIDE]
16%

So what's the measured Population Fragmented Nuclei (%) for this one? Cl.Cl.OCCOCCN1CCN(C(c2ccccc2)c2ccc(Cl)cc2)CC1 (stereo not drawn) [HYDROXYZINE HYDROCHLORIDE]
14%

So what's the measured Population Fragmented Nuclei (%) for this one? "COc1cc2nc(N3CCN(C(=O)COc4c(OC)cccc4C(C)C)CC3)nc(N)c2cc1OC.Cl.Cl"
18%

So what's the measured Population Fragmented Nuclei (%) for this one? Cc1cc(-c2ccc3c(c2)CC[C@H]3N2CC3(CCN(C(=O)Cc4cn5cc(C)sc5n4)CC3)C2)ncn1 [PF-5190457]
14%

So what's the measured Population Fragmented Nuclei (%) for this one? "S=C(NCCCc1c[nH]cn1)NCCCN(Cc1ccc(Cl)c(Cl)c1)c1ccc(Br)cn1"
23%

So what's the measured Population Fragmented Nuclei (%) for this one? C=CCN1C[C@H](C(=O)N(CCCN(C)C)C(=O)NCC)C[C@@H]2c3cccc4[nH]cc(c34)C[C@H]21 [CABERGOLINE]
13%

###

System: HEK-293T
ASSAY OVERVIEW: Multiplex assay against HEK293T
Type: toxicity, cell-based
CONDITION INFO: human, 12 h, 1 µM, compound concentration 1 uM, replicate 2
Non-standard residues stand in square brackets, D forms with d. Residues, ends and D or L forms follow the SMILES beside them.
QUANTITY MEASURED: Population Normal (%)
Answer by giving the amount and then stating its unit.

So what's the measured Population Normal (%) for this one? CN(C)C/C=C/C(=O)Nc1ccc(C(=O)N2CCCC(Nc3ncc(Cl)c(-c4c[nH]c5ccccc45)n3)C2)cc1 (stereo unspecified)
76%

So what's the measured Population Normal (%) for this one? CN1CCN2c3ccccc3Cc3ccccc3C2C1.Cl (stereo unspecified) [MIANSERIN HYDROCHLORIDE]
89%

So what's the measured Population Normal (%) for this one? "OCCCNc1cc(-c2ccnc(Nc3cccc(Cl)c3)n2)ccn1"
88%

So what's the measured Population Normal (%) for this one? "Cc1sc2c(c1C)C(c1ccc(Cl)cc1)=N[C@H](CC(=O)OC(C)(C)C)c1nnc(C)n1-2"
90%

So what's the measured Population Normal (%) for this one? "COc1cc(C(=O)N2CC[C@@H](O)[C@@H](N)C2)cc2nc(-c3cc4ccccc4n3CC3CC3)n(C)c12.Cl"
84%

So what's the measured Population Normal (%) for this one? "CCc1nn2c(C)cc(C)nc2c1Cc1ccc(-c2nnc(C3CCNCC3)o2)cc1"
94%

So what's the measured Population Normal (%) for this one? "CN1CCC(C(=O)c2cccc(NC(=O)c3c(F)cc(F)cc3F)n2)CC1"
92%

So what's the measured Population Normal (%) for this one? "Cc1c(Cc2ccc3ccccc3n2)c2cc(F)ccc2n1CC(=O)O"
92%

So what's the measured Population Normal (%) for this one? "Cc1cc(-c2ccc3c(c2)CC[C@H]3N2CC3(CCN(C(=O)Cc4cn5cc(C)sc5n4)CC3)C2)ncn1"
89%

So what's the measured Population Normal (%) for this one? "Cc1cc(=O)n(C)c2cc(N3C(=O)CC[C@H](NS(=O)(=O)CC(C)C)[C@H]3c3ccc(Cl)cc3)ccc12"
93%

So what's the measured Population Normal (%) for this one? "Nc1nc(-c2ccco2)c2cnn(Cc3ccccc3F)c2n1"
88%

So what's the measured Population Normal (%) for this one? "COC(c1ccccc1)(c1ccccc1)[C@H](Oc1nc(C)cc(C)n1)C(=O)O"
88%

So what's the measured Population Normal (%) for this one? "CC(C)(O)C(=O)N1CCN(c2ccc(C(F)(F)F)c(C3=C(c4c[nH]c5ccccc45)C(=O)NC3=O)c2)CC1"
92%

So what's the measured Population Normal (%) for this one? CC(C)C[C@@H]1NC(=O)[C@@H](C(C)C)NC(=O)[C@@H]2CCCN2C(=O)[C@@H](CC(=O)O)NC(=O)[C@@H](Cc2c[nH]c3ccccc23)NC1=O [BQ-123] (cyclo(L[dW][dD]P[dV]))
92%

So what's the measured Population Normal (%) for this one? "COc1cc2nc(N3CCN(C(=O)COc4c(OC)cccc4C(C)C)CC3)nc(N)c2cc1OC.Cl.Cl"
95%

So what's the measured Population Normal (%) for this one? O=C(NCCNCC(O)COc1ccc(O)cc1)N1CCOCC1.O=C(NCCNCC(O)COc1ccc(O)cc1)N1CCOCC1.O=C(O)/C=C/C(=O)O (stereo unspecified) [XAMOTEROL FUMARATE]
85%
